Each recorded value in this set is attributed to patent US8017727B2.

- Measurement Notes: Stability of MTLPs in simulated intestinal fluid pH 6.8 with pancreatin (HPLC recovery)
- Condition Set: % Recovery, control without SIF: Pep + H2O (100 ul) + quenching solution, 60 min
Property: recovery (%)
Numeric only. Scale: %

Ask: Provide recovery value for the following compound: CC(C)C[C@@H](NC(=O)[C@@H](CC(C)C)NC(=O)[C@H](NC(=O)[C@H]1CCCN1C(=O)[C@@H](CC(C)C)NC(=O)[C@@H](CC(C)C)NC(=O)[C@H](NC(=O)[C@@H](C)NC(=O)[C@@H](C)NC(=O)[C@@H](C)NC(=O)[C@@H](CCCCN)NC(=O)[C@@H](CCCCN)NC(=O)[C@H](N)CCCCNS(=O)(=O)c1cccc2c(N(C)C)cccc12)C(C)C)C(C)C)C(=O)N[C@H](C)C(=O)N[C@H](C)C(=O)N1CCC[C@@H]1C(N)=O [ZElan207]
Reply: 101

----------
- Measurement Notes: Opioid peptide stability in SIF (pancreatin, pH 7.5, HPLC/LCMS)
- Type: in vitro ADME
- Condition Set: simulated intestinal fluid (SIF) with pancreatin, pH 7.5; SIF, 37° C., 1 hr; read-out: % Compound
- Protocol: Pancreatin (Fisher Scientific) was dissolved at 1 mg/ml in 1× phosphate buffer solution. The pH of the solution was adjusted to 7.5 with 0.01 M NaOH and it was heated in a waterbath to 37° C. Two dry peptide samples were weighed out. One sample was dissolved in phosphate buffer solution at 1.0 mg/ml as a control. The second sample was dissolved in SIF at 1.0 mg/ml for stability analysis. […] Analyzed control and 24 hour sample by LCMS.
Property: remaining at 1 h, 1 mg/ml (%)
Numeric only. Scale: %

Ask: Provide remaining at 1 h, 1 mg/ml value for the following molecule: "CC[C@@H](C)[C@@H](NC(=O)[C@@H](Cc1ccccc1)NC(=O)[C@H](N)Cc1ccccc1)C(=O)N[C@H](CCCNC(=N)N)C(N)=O"
Reply: 105

----------
- Measurement Notes: Systemic 3H bioavailability of kappa peptide conjugates, conscious rat model (plasma)
- Assay type: in vivo, Wistar rats
- Condition Set: rat, plasma; intravenous (IV), 10 μCi
Property: clearance (mL/min)
Numeric only. Scale: mL/min

Ask: Provide clearance value for the following molecule: CC[C@@H](C)[C@@H](NC(=O)[C@@H](Cc1ccccc1)NC(=O)[C@H](N)Cc1ccccc1)C(=O)N[C@H](CCCNC(=N)N)C(N)=O [3H-Kappa peptide-Kaffiralin-1]
Reply: 2.38

----------
- Measurement Notes: Systemic 3H bioavailability of kappa peptide conjugates, conscious rat model (plasma)
- Type: in vivo, Wistar rats
- Condition Set: rat, plasma; intraduodenal (ID), 100 μCi; potency corrected; Elan207 = original group; read-out: Absolute 3H bioavailability
Property: bioavailability (%)
Numeric only. Scale: %

Ask: Provide bioavailability value for the following compound: CC[C@@H](C)[C@@H](NC(=O)[C@@H](Cc1ccccc1)NC(=O)[C@H](N)Cc1ccccc1)C(=O)N[C@H](CCCNC(=N)N)C(N)=O [3H-Kappa peptide-Kaffiralin-1]
Reply: 7.94

----------
- Measurement Notes: Stability of MTLPs in simulated intestinal fluid pH 6.8 with pancreatin (HPLC recovery)
- Condition Set: pH 6.8, % Recovery, Peptide + 100 uL SIF pH 6.8, 37 C, 60 min
Property: recovery

Ask: Provide recovery value for the following molecule: CC(C)C[C@@H](NC(=O)[C@@H](CC(C)C)NC(=O)[C@H](NC(=O)[C@H]1CCCN1C(=O)[C@@H](CC(C)C)NC(=O)[C@@H](CC(C)C)NC(=O)[C@H](NC(=O)[C@@H](C)NC(=O)[C@@H](C)NC(=O)[C@@H](C)NC(=O)[C@@H](CCCCN)NC(=O)[C@@H](CCCCN)NC(=O)[C@H](N)CCCCNS(=O)(=O)c1cccc2c(N(C)C)cccc12)C(C)C)C(C)C)C(=O)N[C@H](C)C(=O)N[C@H](C)C(=O)N1CCC[C@@H]1C(N)=O [ZElan207]
Reply: 97.7%

----------
- Measurement Notes: Stability of MTLPs in simulated intestinal fluid pH 6.8 with pancreatin (HPLC recovery)
- Condition Set: pH 6.8, % Recovery, Peptide + 200 uL SIF pH 6.8, 37 C, 60 min
Property: recovery (%)
Numeric only. Scale: %

Ask: Provide recovery value for the following compound: "CC(C)C[C@@H](NC(=O)[C@@H](CC(C)C)NC(=O)[C@H](NC(=O)[C@H]1CCCN1C(=O)[C@@H](CC(C)C)NC(=O)[C@@H](CC(C)C)NC(=O)[C@H](NC(=O)[C@@H](C)NC(=O)[C@@H](C)NC(=O)[C@@H](C)NC(=O)[C@@H](CCCCN)NC(=O)[C@@H](CCCCN)NC(=O)[C@H](N)CCCCNS(=O)(=O)c1cccc2c(N(C)C)cccc12)C(C)C)C(C)C)C(=O)N[C@H](C)C(=O)N[C@H](C)C(=O)N1CCC[C@@H]1C(N)=O"
Reply: 96.5

----------
- Measurement Notes: Stability of MTLPs in simulated intestinal fluid pH 6.8 with pancreatin (HPLC recovery)
- Condition Set: pH 6.8, % Recovery, Peptide + 100 uL SIF pH 6.8, 37 C, 30 min
Property: recovery
Remember to put the unit after the number in your answer.

Ask: Provide recovery value for the following molecule: CC(C)C[C@@H](NC(=O)[C@@H](CC(C)C)NC(=O)[C@H](NC(=O)[C@H]1CCCN1C(=O)[C@@H](CC(C)C)NC(=O)[C@@H](CC(C)C)NC(=O)[C@H](NC(=O)[C@@H](C)NC(=O)[C@@H](C)NC(=O)[C@@H](C)NC(=O)[C@@H](CCCCN)NC(=O)[C@@H](CCCCN)NC(=O)[C@H](N)CCCCNS(=O)(=O)c1cccc2c(N(C)C)cccc12)C(C)C)C(C)C)C(=O)N[C@H](C)C(=O)N[C@H](C)C(=O)N1CCC[C@@H]1C(N)=O [ZElan207]
Reply: 87.8%

----------
- Measurement Notes: Stability of MTLPs in simulated intestinal fluid pH 6.8 with pancreatin (HPLC recovery)
- Condition Set: % Recovery, control without SIF: Pep + H2O (100 ul) + H2O, 60 min
Property: recovery (%)
Numeric only. Scale: %

Ask: Provide recovery value for the following compound: CC(C)C[C@@H](NC(=O)[C@@H](CC(C)C)NC(=O)[C@H](NC(=O)[C@H]1CCCN1C(=O)[C@@H](CC(C)C)NC(=O)[C@@H](CC(C)C)NC(=O)[C@H](NC(=O)[C@@H](C)NC(=O)[C@@H](C)NC(=O)[C@@H](C)NC(=O)[C@@H](CCCCN)NC(=O)[C@@H](CCCCN)NC(=O)[C@H](N)CCCCNS(=O)(=O)c1cccc2c(N(C)C)cccc12)C(C)C)C(C)C)C(=O)N[C@H](C)C(=O)N[C@H](C)C(=O)N1CCC[C@@H]1C(N)=O [ZElan207]
Reply: 101

----------
- Measurement Notes: Stability of MTLPs in simulated intestinal fluid pH 6.8 with pancreatin (HPLC recovery)
- Condition Set: pH 6.8, % Recovery, Peptide + 100 uL SIF pH 6.8, 37 C, 5 min
Property: recovery (%)
Numeric only. Scale: %

Ask: Provide recovery value for the following molecule: "CC(C)C[C@@H](NC(=O)[C@@H](CC(C)C)NC(=O)[C@H](NC(=O)[C@H]1CCCN1C(=O)[C@@H](CC(C)C)NC(=O)[C@@H](CC(C)C)NC(=O)[C@H](NC(=O)[C@@H](C)NC(=O)[C@@H](C)NC(=O)[C@@H](C)NC(=O)[C@@H](CCCCN)NC(=O)[C@@H](CCCCN)NC(=O)[C@H](N)CCCCNS(=O)(=O)c1cccc2c(N(C)C)cccc12)C(C)C)C(C)C)C(=O)N[C@H](C)C(=O)N[C@H](C)C(=O)N1CCC[C@@H]1C(N)=O"
Reply: 96.6
